System: L1210
Test: In vitro for cytotoxicity against murine leukemia cells (L1210)
Format: functional, cell-based
Conditions: Mus musculus
Catalogue of compounds with associated pIC50
Conceptually, pIC50 converts a concentration in mol/L into minus its log10.

CNc1ccc2c(Nc3ccc(NS(C)(=O)=O)cc3NC)c3ccccc3nc2c1	8.24

Could you tell me which pIC50 is on file for CNc1cc(NS(C)(=O)=O)ccc1Nc1c2ccccc2nc2c(C)c(C)ccc12 ? 7.37

What does the data say about its pIC50? Entry: CNc1cc(NS(C)(=O)=O)ccc1Nc1c2ccccc2nc2c(C)cccc12 7.28

Query: pIC50; subject: CNc1cc(NS(C)(=O)=O)ccc1Nc1c2ccccc2nc2c(OC)cccc12 6.89

So what's the measured pIC50 for this one? CNc1cc(NS(C)(=O)=O)ccc1Nc1c2ccccc2nc2cc(F)ccc12 7.03

* * *

Entries and their D50
System: P388
Test: In vivo for antitumor activity against P388 leukemia
Format: functional, Mus musculus
I only need the number, in mg/kg, no unit after it.

I'd like to know its D50. The molecule in question is CNC(=O)c1cccc2c(Nc3ccc(NS(C)(=O)=O)cc3NC)c3cccc(OC)c3nc12 30

// lookup D50 for CNc1cc(NS(C)(=O)=O)ccc1Nc1c2ccccc2nc2c(C(=O)NCC(N)=O)cccc12 45

Look at this molecule and give its reported D50. CNC(=O)c1cccc2c(Nc3ccc(NS(C)(=O)=O)cc3NC)c3cccc(C)c3nc12 6

Consider the molecule CNc1cc(NS(C)(=O)=O)ccc1Nc1c2ccccc2nc2cc(NC(=O)OC)ccc12 and give its measured D50. 1.5

* * *

Tested on: P388
Experiment: In vivo for antitumor activity against P388 leukemia.
Type: functional, Mus musculus
The label depends only on OD: Met if it is at least 60 mg/kg, Not met if it is smaller.

Say whether CNC(=O)c1cccc2c(Nc3ccc(NS(C)(=O)=O)cc3OC)c3cccc(C)c3nc12 shows OD of 60 mg/kg or more. Not met

Record CNc1cc(NS(C)(=O)=O)ccc1Nc1c2ccccc2nc2c(C)cccc12 ; criterion: OD no lower than 60 mg/kg. Met? Not met

Say whether CNc1cc(NS(C)(=O)=O)ccc1Nc1c2ccccc2nc2cc(Br)ccc12 shows OD of 60 mg/kg or more. Met

Please tell me: is the molecule CNc1cc(NS(C)(=O)=O)ccc1Nc1c2ccccc2nc2cc([N+](=O)[O-])ccc12 at or over 60 mg/kg in terms of OD? Not met

# check: OD of CNc1cc(NS(C)(=O)=O)ccc1Nc1c2ccccc2nc2c(OC)cccc12 is greater than or equal to 60 mg/kg Not met

Decide: is the reported value of OD for CNc1cc(NS(C)(=O)=O)ccc1Nc1c2ccccc2nc2c(C)c(C)ccc12 equal to or greater than 60 mg/kg? Not met

* * *

Tested on: P388
Assay: In vivo for antitumor activity against P388 leukemia
Format: functional, Mus musculus
readoutLabel: D50 (mg/kg)
Give just the number in mg/kg; leave the unit off.

Recorded D50, per entry:
CNc1cc(NS(C)(=O)=O)ccc1Nc1c2ccccc2nc2c(OC)cccc12	5
CNC(=O)c1cccc2c(Nc3ccc(NS(C)(=O)=O)cc3NC)c3ccccc3nc12	30
CNC(=O)c1ccc2c(Nc3ccc(NS(C)(=O)=O)cc3NC)c3ccccc3nc2c1	30
CNc1cc(NS(C)(=O)=O)ccc1Nc1c2ccc(Br)cc2nc2c(C)cccc12	7
CNc1cc(NS(C)(=O)=O)ccc1Nc1c2ccccc2nc2c(F)cccc12	20

Would you kindly share the measured D50 for CNc1cc(NS(C)(=O)=O)ccc1Nc1c2ccc(Cl)cc2nc2c(OC)cccc12 ? 20

For the compound shown here, CNc1cc(NS(C)(=O)=O)ccc1Nc1c2ccc(C)cc2nc2c(C)cccc12 , give the reported D50. 2

# get_value(readout='D50', item= CNc1cc(NS(C)(=O)=O)ccc1Nc1c2ccccc2nc2cc(I)ccc12 ) 10

Look up D50: CNc1cc(NS(C)(=O)=O)ccc1Nc1c2ccccc2nc2cc(Br)ccc12 5

I have this compound here, CNC(=O)c1cccc2c(Nc3ccc(NS(C)(=O)=O)cc3NC)c3ccc(Cl)cc3nc12 , and I need its recorded D50. 30

Which D50 reading was recorded for the compound CNc1cc(NS(C)(=O)=O)ccc1Nc1c2cccc(OC)c2nc2c(OC)cccc12 ? 25

State the recorded D50 for this entry: CNc1cc(NS(C)(=O)=O)ccc1Nc1c2ccccc2nc2c1ccc1ccccc12 45

* * *

Test system: Lewis lung carcinoma cell line
Test: In vivo for antitumor activity against Lewis lung carcinoma
Assay type: functional, Mus musculus
Recorded measurements of OD, one per entry
Please give a number only; it is taken to be in mg/kg.

Reference set, count: 3
CNc1cc(NS(C)(=O)=O)ccc1Nc1c2ccccc2nc2cc(Br)ccc12	20
CNc1cc(NS(C)(=O)=O)ccc1Nc1c2ccccc2nc2c1ccc1ccccc12	20
CNC(=O)c1cccc2c(Nc3ccc(NS(C)(=O)=O)cc3NC)c3cccc(C)c3nc12	30

Please give the measured OD for this compound: CNc1cc(NS(C)(=O)=O)ccc1Nc1c2ccccc2nc2c(C)cccc12 20

Quick one: OD for CNc1cc(NS(C)(=O)=O)ccc1Nc1c2ccc(Br)cc2nc2c(C)cccc12 ? 13.3

What value of OD has been reported for the following compound? CNc1cc(NS(C)(=O)=O)ccc1Nc1c2cccc(C)c2nc2c(C)cccc12 65

* * *

Tested on: Lewis lung carcinoma cell line
Assay: In vivo for antitumor activity against Lewis lung carcinoma
Type: functional, Mus musculus
readoutLabel: OD (mg/kg)
Write it as a number; the unit mg/kg goes unstated.

CNc1cc(NS(C)(=O)=O)ccc1Nc1c2ccc(OC)cc2nc2c(C)cccc12	4
CNc1cc(NS(C)(=O)=O)ccc1Nc1c2ccccc2nc2c(F)cccc12	65
CNc1cc(NS(C)(=O)=O)ccc1Nc1c2ccc(Br)cc2nc2c(OC)cccc12	65
CNc1cc(NS(C)(=O)=O)ccc1Nc1c2ccccc2nc2c(OC)cccc12	45
CNc1cc(NS(C)(=O)=O)ccc1Nc1c2ccc(Cl)cc2nc2c(C)cccc12	30
CNc1cc(NS(C)(=O)=O)ccc1Nc1c2ccc(F)cc2nc2c(C)cccc12	45
CNC(=O)c1cccc2c(Nc3ccc(NS(C)(=O)=O)cc3NC)c3ccccc3nc12	45
CNc1cc(NS(C)(=O)=O)ccc1Nc1c2ccccc2nc2c(Cl)cccc12	100
CNc1cc(NS(C)(=O)=O)ccc1Nc1c2ccc(C)cc2nc2c(C)cccc12	5.9
CNc1cc(NS(C)(=O)=O)ccc1Nc1c2ccccc2nc2ccccc12	30

Item CNc1cc(NS(C)(=O)=O)ccc1Nc1c2ccc(Cl)cc2nc2c(OC)cccc12 has what recorded OD? 45

Look at this molecule and give its reported OD. CNc1cc(NS(C)(=O)=O)ccc1Nc1c2ccccc2nc2c(C)c(C)ccc12 20

Look up OD: CNc1cc(NS(C)(=O)=O)ccc1Nc1c2ccc(C)cc2nc2c(OC)cccc12 20

Would you mind telling me what OD value was observed for CNC(=O)c1cccc2c(Nc3ccc(NS(C)(=O)=O)cc3OC)c3cccc(C)c3nc12 [ASULACRINE] ? 30

GET /values?readout=OD&item= CNc1cc(NS(C)(=O)=O)ccc1Nc1c2cccc(OC)c2nc2c(OC)cccc12 65

Which OD value belongs to CNc1cc(NS(C)(=O)=O)ccc1Nc1c2ccccc2nc2ccc(OC)cc12 ? 150

Which OD value is on record for CNc1ccc2c(Nc3ccc(NS(C)(=O)=O)cc3NC)c3ccccc3nc2c1 ? 2.6

For the molecule CNc1cc(NS(C)(=O)=O)ccc1Nc1c2ccccc2nc2ccc(Cl)cc12 , what OD is on record? 150

* * *

System: L1210
Assay: In vitro for cytotoxicity against murine leukemia cells (L1210)
Assay type: functional, cell-based
Conditions: Mus musculus
readoutLabel: IC50 (µM)
Report the figure in µM without appending any unit label.

CNc1cc(NS(C)(=O)=O)ccc1Nc1c2ccc(Br)cc2nc2c(OC)cccc12	0.041

What measured IC50 goes with CNc1cc(NS(C)(=O)=O)ccc1Nc1c2ccccc2nc2cc([N+](=O)[O-])ccc12 ? 0.11

What value of IC50 has been recorded for this entry: CNc1cc(NS(C)(=O)=O)ccc1Nc1c2ccccc2nc2c(Cl)cccc12 0.69

Please look up its IC50: CNc1cc(NS(C)(=O)=O)ccc1Nc1c2ccccc2nc2c(C(N)=O)cccc12 0.56

* * *

The reader will find reported pIC50 values listed item by item below.
Test system: L1210
Assay: In vitro for cytotoxicity against murine leukemia cells (L1210)
Assay type: functional, cell-based
Settings: Mus musculus
Value format note: pIC50 is -log10 of concentration (mol/L); just state the number.

CNC(=O)c1cccc2c(Nc3ccc(NS(C)(=O)=O)cc3NC)c3ccccc3nc12	7.25
CNc1cc(NS(C)(=O)=O)ccc1Nc1c2ccccc2nc2cc(C)ccc12	7.72
CNc1cc(NS(C)(=O)=O)ccc1Nc1c2ccccc2nc2cc(I)ccc12	7.54
CNc1cc(NS(C)(=O)=O)ccc1Nc1c2ccc(Br)cc2nc2c(C)cccc12	7.68
CNc1cc(NS(C)(=O)=O)ccc1Nc1c2ccccc2nc2c(F)cccc12	6.40
CNc1cc(NS(C)(=O)=O)ccc1Nc1c2ccc(F)cc2nc2c(C)cccc12	6.82
CNc1cc(NS(C)(=O)=O)ccc1Nc1c2ccccc2nc2c(C(=O)NCC(N)=O)cccc12	5.46
CNc1cc(NS(C)(=O)=O)ccc1Nc1c2ccccc2nc2c(Br)cccc12	6.72

What does the record list as pIC50 for CNc1cc(NS(C)(=O)=O)ccc1Nc1c2ccccc2nc2c(C)ccc(C)c12 ? 5.77

What does the data say about its pIC50? Entry: CNc1cc(NS(C)(=O)=O)ccc1Nc1c2ccc(C)cc2nc2c(C)cccc12 7.72
